Reference for the values: ChEMBL document CHEMBL2417465

This listing pairs molecules with measured IC50.
# Tested on: MCF7
# Assay Protocol: Cytotoxicity against human MCF7 cells after 72 hrs by MTT assay
# Type: functional, cell-based
# Details: MCF7, 72 h
Measured Quantity: IC50 (µM)

{"columns": ["Compound Structure String", "Test System", "Measured Quantity", "Numeric Readout"],
 "data": [
  ["CC[C@@H](C(=O)[C@@H](C)[C@@H](O)[C@H](C)CCc1ccc(C)c(O)c1CN1CCOCC1)[C@H]1O[C@](CC)([C@H]2CC[C@](O)(CC)[C@H](C)O2)C[C@@H]1C", "MCF7", "IC50", 2.08],
  ["CC[C@@H](C(=O)[C@@H](C)[C@@H](O)[C@H](C)CCc1ccc(C)c(O)c1C(=O)O)[C@H]1O[C@](CC)([C@H]2CC[C@](O)(CC)[C@H](C)O2)C[C@@H]1C", "MCF7", "IC50", 3.12],
  ["CC[C@@H](C(=O)[C@@H](C)[C@@H](O)[C@H](C)CCc1ccc(C)c(O)c1CN(C(C)C)C(C)C)[C@H]1O[C@](CC)([C@H]2CC[C@](O)(CC)[C@H](C)O2)C[C@@H]1C", "MCF7", "IC50", 5.5],
  ["CCCCN(CCCC)Cc1c(CC[C@@H](C)[C@H](O)[C@H](C)C(=O)[C@H](CC)[C@H]2O[C@](CC)([C@H]3CC[C@](O)(CC)[C@H](C)O3)C[C@@H]2C)ccc(C)c1O", "MCF7", "IC50", 6.11],
  ["CCCN(CCC)Cc1c(CC[C@@H](C)[C@H](O)[C@H](C)C(=O)[C@H](CC)[C@H]2O[C@](CC)([C@H]3CC[C@](O)(CC)[C@H](C)O3)C[C@@H]2C)ccc(C)c1O", "MCF7", "IC50", 5.62],
  ["CC[C@@H](C(=O)[C@@H](C)[C@@H](O)[C@H](C)CCc1ccc(C)c(O)c1CN(Cc1ccccc1)Cc1ccccc1)[C@H]1O[C@](CC)([C@H]2CC[C@](O)(CC)[C@H](C)O2)C[C@@H]1C", "MCF7", "IC50", 18.4]
]}
